Molecular target: β-catenin/APC-R3 (Homo sapiens)
Construct: 2000 nM human β-catenin (residues 138-781); 6×histidine (C)
Sequence (P35222 138-781): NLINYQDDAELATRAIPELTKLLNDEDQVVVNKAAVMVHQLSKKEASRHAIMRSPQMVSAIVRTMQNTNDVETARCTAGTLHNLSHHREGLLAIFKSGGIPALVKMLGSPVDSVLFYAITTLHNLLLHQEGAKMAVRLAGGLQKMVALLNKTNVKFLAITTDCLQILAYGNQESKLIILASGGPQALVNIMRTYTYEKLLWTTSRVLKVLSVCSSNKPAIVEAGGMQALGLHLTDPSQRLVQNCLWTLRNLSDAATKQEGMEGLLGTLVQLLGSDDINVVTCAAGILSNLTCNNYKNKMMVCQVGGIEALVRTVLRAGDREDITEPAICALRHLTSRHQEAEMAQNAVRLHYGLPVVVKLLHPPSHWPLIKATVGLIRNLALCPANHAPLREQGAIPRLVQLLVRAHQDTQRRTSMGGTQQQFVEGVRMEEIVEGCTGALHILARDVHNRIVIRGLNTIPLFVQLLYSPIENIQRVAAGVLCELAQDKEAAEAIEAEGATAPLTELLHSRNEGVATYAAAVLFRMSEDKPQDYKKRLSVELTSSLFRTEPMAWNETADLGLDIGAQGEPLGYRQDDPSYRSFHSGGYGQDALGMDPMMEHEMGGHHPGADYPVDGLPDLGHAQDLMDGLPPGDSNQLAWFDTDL
Experiment: FP selectivity assay, β-catenin/APC-R3 assay
Conditions: FP selectivity assay; mean ± SD (n = 3)
readout.kind: Ki (µM)
// units = µM; emit number, no label

Record O=C(O)c1ccc2c(c1)c(CCc1ccc(Cl)cc1)c(CCc1nc3ccccc3s1)n2CCc1nn[nH]n1 has β-catenin/APC-R3 (Homo sapiens) Ki equal to 74

Where do the numbers come from? From patent US11530186B2.
